- system name: UniProt P34913
- Sequence (P34913 whole entry): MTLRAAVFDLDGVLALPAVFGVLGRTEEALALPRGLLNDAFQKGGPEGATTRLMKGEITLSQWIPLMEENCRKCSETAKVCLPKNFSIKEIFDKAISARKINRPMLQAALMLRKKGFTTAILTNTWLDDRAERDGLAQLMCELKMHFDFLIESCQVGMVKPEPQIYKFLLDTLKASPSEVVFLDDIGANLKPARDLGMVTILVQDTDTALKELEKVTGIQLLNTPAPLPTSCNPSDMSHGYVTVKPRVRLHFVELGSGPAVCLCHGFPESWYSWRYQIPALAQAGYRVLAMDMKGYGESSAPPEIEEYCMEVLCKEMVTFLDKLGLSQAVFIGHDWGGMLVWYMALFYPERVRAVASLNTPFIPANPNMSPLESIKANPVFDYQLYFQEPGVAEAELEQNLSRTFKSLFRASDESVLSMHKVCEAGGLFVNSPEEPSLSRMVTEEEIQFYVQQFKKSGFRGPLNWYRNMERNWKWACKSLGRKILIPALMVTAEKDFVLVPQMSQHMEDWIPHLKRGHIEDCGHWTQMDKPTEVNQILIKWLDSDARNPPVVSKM
- method: in vitro biochemical activity test, sEH enzyme inhibition with EET substrate (LC-MS)
- condition set: 90 min pre-incubation at room temperature, 60 min reaction
measured endpoint: pIC50
# pIC50 is unitless: minus log10 of the molar concentration; print number only

Note to self: pIC50 recorded for `Cc1[nH]c(=O)ccc1-c1cc2nc(-c3ccc(S(=O)(=O)N(C)C)cc3)[nH]c2cc1F` was 9.64

Note to self: pIC50 recorded for `Cc1ccncc1-c1cc2[nH]c(-c3ccc(S(=O)(=O)N(C)C)cc3)nc2cc1F` was 10.00

Note to self: pIC50 recorded for `Cc1ncc(-c2cc3nc(-c4ccc(C(F)(F)F)cc4)[nH]c3c(F)c2F)c(C)n1` was 10.13

Note to self: pIC50 recorded for `Cc1nc(N)ncc1-c1cc2nc(-c3ccc(S(=O)(=O)N(C)C)cc3)[nH]c2c(F)c1Cl` was 10.07

Note to self: pIC50 recorded for `Cc1ncc(-c2ccc3[nH]c(-c4ccc(C(F)(F)F)cc4)nc3c2F)cn1` was 9.03

Note to self: pIC50 recorded for `Nc1ncc(-c2cc3[nH]c(-c4cccc(C(F)(F)F)c4)nc3c(F)c2F)c(C(F)F)n1` was 9.35

Note to self: pIC50 recorded for `CC(C)n1ccnc1-c1cc2[nH]c(-c3ccc(C(F)(F)F)cc3)nc2c(F)c1F` was 9.11

Note to self: pIC50 recorded for `Cc1nc(N2CCOCC2)ncc1-c1cc2nc(-c3ccc(S(=O)(=O)N(C)C)cc3)[nH]c2cc1F` was 10.09

Note to self: pIC50 recorded for `CN1CCN(c2ncc(-c3cc4nc(-c5ccc(C(F)(F)F)cc5)[nH]c4cc3F)cn2)CC1` was 8.32

Note to self: pIC50 recorded for `CN(C)S(=O)(=O)c1ccc(-c2nc3cc(-c4cnc(N)cc4Cl)c(F)cc3[nH]2)cc1` was 10.20

Note to self: pIC50 recorded for `CC(C)n1nccc1-c1cc2nc(-c3ccc(S(=O)(=O)N(C)C)cc3)[nH]c2c(F)c1F` was 10.35

Note to self: pIC50 recorded for `Cc1nc(N)ncc1-c1cc2nc(-c3ccc(S(=O)(=O)N(C)C)cc3)[nH]c2c(Cl)c1F` was 10.35

Note to self: pIC50 recorded for `Cc1nc(N)ncc1-c1cc2nc(-c3ccc(C(F)(F)F)cc3)[nH]c2c(F)c1F` was 10.19

Note to self: pIC50 recorded for `CNc1nc(C)ncc1-c1cc2nc(-c3ccc(C(F)(F)F)cc3)[nH]c2cc1F` was 9.96

Note to self: pIC50 recorded for `Fc1cc2[nH]c(-c3ccc(C(F)(F)F)cc3)nc2cc1-c1cnc(N2CCOCC2)nc1` was 9.85

Note to self: pIC50 recorded for `Nc1ncc(-c2cc3[nH]c(-c4ccc(C(F)(F)F)cc4)nc3c(F)c2F)c(C(F)F)n1` was 10.05

Note to self: pIC50 recorded for `Cc1ccc(-c2cc3nc(-c4ccc(C(F)(F)F)cc4)[nH]c3cc2F)cn1` was 9.21

Note to self: pIC50 recorded for `Cc1nc(N(C)C)ncc1-c1cc2nc(-c3ccc(C(F)(F)F)cc3)[nH]c2cc1F` was 9.96

Note to self: pIC50 recorded for `Cc1ncc(-c2cc3nc(-c4ccc(S(=O)(=O)N(C)C)cc4)[nH]c3cc2F)c(C)n1` was 10.08

Note to self: pIC50 recorded for `COc1nc(C)ncc1-c1cc2nc(-c3ccc(S(=O)(=O)N(C)C)cc3)[nH]c2cc1F` was 9.89

Note to self: pIC50 recorded for `Nc1cc(C(F)F)c(-c2cc3[nH]c(-c4ccc(C(F)(F)F)cc4)nc3c(F)c2F)cn1` was 10.33

Note to self: pIC50 recorded for `CN(C)S(=O)(=O)c1ccc(-c2nc3c(F)c(F)c(-c4cnc(N)cc4Cl)cc3[nH]2)cc1` was 10.44

Note to self: pIC50 recorded for `CS(=O)(=O)c1ccc(-c2nc3cc(-c4cnc(N5CCOCC5)nc4)c(F)cc3[nH]2)cc1` was 8.66

Note to self: pIC50 recorded for `Nc1ncc(-c2cc3[nH]c(-c4ccc(C(F)F)cc4)nc3c(F)c2F)c(C(F)F)n1` was 10.38

Note to self: pIC50 recorded for `CNS(=O)(=O)c1ccc(-c2nc3cc(-c4cnc(F)cc4C)c(F)cc3[nH]2)cc1` was 9.42

Note to self: pIC50 recorded for `COc1ccc(-c2nc3cc(-c4ccncc4Cl)c(F)cc3[nH]2)cc1F` was 7.96

Note to self: pIC50 recorded for `COc1cc(C)c(-c2cc3nc(-c4ccc(S(=O)(=O)N(C)C)cc4)[nH]c3cc2F)cn1` was 10.06

Note to self: pIC50 recorded for `CC(C)c1nc(N)ncc1-c1cc2nc(-c3ccc(S(=O)(=O)N(C)C)cc3)[nH]c2cc1F` was 10.24

Note to self: pIC50 recorded for `CC(C)n1nc(N)cc1-c1cc2[nH]c(-c3ccc(S(=O)(=O)N(C)C)cc3)nc2cc1F` was 10.24

Note to self: pIC50 recorded for `Cc1nc(N)ncc1-c1cc2nc(-c3ccc(S(=O)(=O)N(C)C)cc3)[nH]c2cc1F` was 10.00

Note to self: pIC50 recorded for `Cc1ncc(-c2cc3nc(-c4ccc(S(=O)(=O)N(C)C)cc4)[nH]c3c(F)c2F)c(Cl)n1` was 10.34

Note to self: pIC50 recorded for `Cc1nc(N)ncc1-c1cc2[nH]c(-c3ccc(C(F)F)cc3)nc2c(F)c1F` was 10.02

Values from patent US20260297065A1
